meta.source: patent EP2476410A1

Assay: Pharmacokinetics: plasma concentration and bioavailability by route (LC/MS/MS)
Assay type: in vivo, mice
Conditions: mouse, plasma, ip; intraperitoneal route, AUC compared to intravenous route; read-out: bioavailability
Where a SMILES comes first, the peptide text is derived from it.
measure.name: bioavailability (%)
// note: answer is a bare numeric in %

Task: Please look at this molecule and report its bioavailability: C[C@@H](O)[C@H](NC(=O)[C@@H]1CCCN1C(=O)[C@H](Cc1ccccc1)NC(=O)[C@@H]1CCCN1C(=O)[C@@H](N)CC(N)=O)C(=O)N[C@@H](Cc1c[nH]c2ccccc12)C(=O)N[C@@H](CCCNC(=N)N)C(=O)N[C@@H](CCCCN)C(=O)N[C@@H](CCCNC(=N)N)C(=O)N1CCC[C@H]1C(=O)NCC(=O)O [the peptide, NPFPTWRKRPG] (H-NPFPTWRKRPG-OH)
Output: 0.5
